# credit: ChEMBL document CHEMBL1268814

Target: Cannabinoid receptor 1 (Homo sapiens, UniProt P21554)
Sequence (P21554 whole entry): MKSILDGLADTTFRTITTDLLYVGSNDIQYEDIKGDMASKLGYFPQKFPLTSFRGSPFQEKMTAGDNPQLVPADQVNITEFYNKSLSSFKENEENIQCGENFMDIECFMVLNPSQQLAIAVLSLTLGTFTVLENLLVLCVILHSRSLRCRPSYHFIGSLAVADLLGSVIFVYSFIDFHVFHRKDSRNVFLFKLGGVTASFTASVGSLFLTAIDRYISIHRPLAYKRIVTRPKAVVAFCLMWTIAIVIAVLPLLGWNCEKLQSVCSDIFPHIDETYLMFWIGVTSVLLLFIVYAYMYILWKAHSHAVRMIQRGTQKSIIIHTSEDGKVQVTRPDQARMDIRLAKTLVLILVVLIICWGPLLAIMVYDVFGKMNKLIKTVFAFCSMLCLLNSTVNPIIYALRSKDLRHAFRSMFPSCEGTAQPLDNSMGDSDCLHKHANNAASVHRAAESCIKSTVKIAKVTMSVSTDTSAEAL
Details: CHO
Activity calls are given as the source filed them. The rule behind the calls is not given here.
Reported Property: Ke

- Cc1c(C(=O)NCCNCCN)nn(-c2ccc(Cl)cc2Cl)c1-c1ccc(Cl)cc1: inactive
- Cc1c(C(=O)NCCCCCN(C)CCCCCN)nn(-c2ccc(Cl)cc2Cl)c1-c1ccc(Cl)cc1: 2870 nM
- Cc1c(C(=O)NCCCCCCCCCN(C)CCCCCCCCCN)nn(-c2ccc(Cl)cc2Cl)c1-c1ccc(Cl)cc1: 141 nM
- Cc1c(C(=O)NCCCCCCCCCCCN(C)CCCCCCCCCCCNC(=O)c2nn(-c3ccc(Cl)cc3Cl)c(-c3ccc(Cl)cc3)c2C)nn(-c2ccc(Cl)cc2Cl)c1-c1ccc(Cl)cc1: inactive
